All figures here come from BindingDB's records for doi:10.1124/jpet.106.102897.

pKi tested on Histamine H1 receptor (Homo sapiens, UniProt P35367): recorded values
Sequence (P35367 whole entry): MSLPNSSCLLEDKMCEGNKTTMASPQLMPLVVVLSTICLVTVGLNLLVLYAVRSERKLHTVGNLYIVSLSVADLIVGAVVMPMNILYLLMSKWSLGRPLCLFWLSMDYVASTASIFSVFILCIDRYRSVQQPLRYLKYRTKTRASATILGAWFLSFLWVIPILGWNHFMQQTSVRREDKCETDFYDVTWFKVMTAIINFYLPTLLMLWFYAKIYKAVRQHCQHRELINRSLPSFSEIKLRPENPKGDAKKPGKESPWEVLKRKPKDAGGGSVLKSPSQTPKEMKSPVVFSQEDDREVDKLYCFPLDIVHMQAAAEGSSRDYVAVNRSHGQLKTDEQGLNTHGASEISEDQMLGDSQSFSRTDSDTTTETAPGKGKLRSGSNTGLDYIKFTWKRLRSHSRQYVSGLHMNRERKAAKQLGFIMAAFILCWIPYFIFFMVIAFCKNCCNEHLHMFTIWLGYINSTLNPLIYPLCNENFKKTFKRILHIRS
Expect pKi as a plain number equal to -log10 of the molar concentration.

{"Mol": "N=C(NCCCc1c[nH]cn1)NC(=O)CCCc1ccccc1", "Quantity": "pKi", "Number": 4.85}
{"Mol": "NC(=NCCCc1cnc[nH]1)NC(=O)CC1CCCCC1", "Quantity": "pKi", "Number": 5.15}
{"Mol": "N=C(NCCCc1c[nH]cn1)NC(=O)CCCC1CCCCC1", "Quantity": "pKi", "Number": 6.00}

Reported pKi for Histamine H1 receptor (Homo sapiens, UniProt P35367), given N=C(NCCCc1c[nH]cn1)NC(=O)CCCCc1ccccc1 ?
5.54
